assay: Intrinsic clearance in human liver microsomes by LC-MS/MS analysis; format: ADME, Microsome; settings: microsomes
Classes by Microsomal intrinsic clearance: lower segment = under 50 µL/min/mg, middle segment = from 50 µL/min/mg up to 200 µL/min/mg, upper segment = 200 µL/min/mg and over

CCn1cc/c(=N\c2cnccn2)c2ccc(-c3cnc(N4CCCN(C)CC4)nc3)cc21; lower segment
O=C(O)[C@@H]1CCCN1c1ncc(-c2ccc3c(Nc4cnccn4)ccnc3c2)cn1; lower segment
COc1ccc(NC(=O)c2ccc(-c3cnc(N4CCCN(C)CC4)nc3)cc2O)cc1Cl; lower segment
CCN1CCN(c2ncc(-c3ccc4c(Nc5cnccn5)ccnc4c3)cn2)CC1; upper segment
CN1CCCN(c2ncc(-c3ccc4c(N(C)c5cnccn5)ccnc4c3)cn2)CC1; middle segment

Please classify: "CN(C)CCN(C)c1ncc(-c2ccc3c(Nc4cnccn4)ccnc3c2)cn1"
lower segment

Entry "CN1CCCN(c2ncc(-c3ccc4c(Nc5cnccn5)ccnc4c3)cn2)CC1" please
middle segment

Entry "COC(=O)[C@@H]1CCCN1c1ncc(-c2ccc3c(Nc4cnccn4)ccnc3c2)cn1" please
upper segment

Entry "CN1C[C@H]2C[C@@H]1CN2c1ncc(-c2ccc3c(Nc4cnccn4)ccnc3c2)cn1" please
lower segment

Entry "CN1CCN(c2ccc(-c3ccc4c(Nc5cnccn5)ccnc4c3)cc2)CC1" please
middle segment

Entry "CN1CCN(c2ncc(-c3ccc4c(NCC5CCOCC5)ccnc4c3)cn2)CC1" please
middle segment

Entry "CN1CCN(c2ncc(-c3ccc4c(Nc5cnccn5)ccnc4c3)cn2)CC1.CS(=O)(=O)O" please
middle segment

Entry "Cc1cncc(Nc2ccnc3cc(-c4cnc(N5CCCN(C)CC5)nc4)ccc23)n1" please
middle segment
